Entry source: the RNAGym collection of RNA variant scans (doi:10.1002/anie.201605470)

For each record, write down the corresponding self-cleavage.
B1: Osa-1-4 twister ribozyme (parent)
chain: CCGCCUAACACUGCCAAUGCCGGUCCCAAGCCCGGAUAAAAGUGGAGGGGGCGG

variants of: B1; assay: self-cleavage, relative activity (ratio to wild type); higher = more cleavage; co-transcriptional
Give bare numbers.

Mutant Code	self-cleavage
C33G G13A	0.03
C27U G45C	0.04
A40C G19C	0.02
C33U U12C	0.11
C21A U24G	0.06

Below is a list of variants. For each, state its recorded self-cleavage.
1. A10G A29G
2. A10U G22U
3. A17U G30C
4. A17G U18G
5. C26G U37C
6. C20A C26A
7. C32U G51U
8. C52G G22U

1. 0.09
2. 0.03
3. 0.06
4. 0.85
5. 0.1
6. 0.08
7. 0.05
8. 0.35
